These measurements were taken from patent US10858373B2.

# test-system: human recombinant Monoacylglycerol Lipase (Homo sapiens (Human))
# Sequence (Q99685 whole entry): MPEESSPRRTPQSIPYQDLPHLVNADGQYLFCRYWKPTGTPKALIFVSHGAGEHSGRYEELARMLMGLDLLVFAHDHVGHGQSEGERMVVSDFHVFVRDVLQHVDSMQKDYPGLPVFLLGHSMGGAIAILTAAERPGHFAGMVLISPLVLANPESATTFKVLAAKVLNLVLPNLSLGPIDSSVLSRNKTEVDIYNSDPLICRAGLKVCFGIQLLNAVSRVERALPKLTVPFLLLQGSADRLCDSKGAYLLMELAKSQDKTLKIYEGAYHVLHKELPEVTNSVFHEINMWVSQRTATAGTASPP
# experiment: MAGL Enzymatic Assay (fluorogenic substrate 7-HCA), IC50
# Type: biochemical
# experimental-parameters: substrate added immediately (T=0 min); geometric mean of 2-4 determinations unless otherwise indicated; read-out: MAGL (T = 0 min) IC50
readout-kind: IC50

Q) So what's the measured IC50 for this one? CN(C(=O)C(C)(C)C)C1COC2(CCN(C(=O)ON3C(=O)CCC3=O)CC2)C1 (stereo not shown)
A) > 692 nM
